src = ChEMBL document CHEMBL2413005

- protocol description: Inhibition of RIP1/JNK2 (unknown origin)-mediated necrosis
Entries and their measured EC50 follow.

Completed entries (count: 5):
1. COc1cc2[nH]c3c(c2cc1C#N)CCc1c[nH]nc1-3: 14 nM
2. Fc1ccc2[nH]c3c(c2c1)CCc1c[nH]nc1-3: 140 nM
3. CC1Cc2c([nH]c3ccccc23)-c2n[nH]cc21 (stereo unspecified): 810 nM
4. N#Cc1ccc2[nH]c3c(c2c1)CCc1c[nH]nc1-3: 80 nM
5. COc1cccc2[nH]c3c(c12)CCc1c[nH]nc1-3: 1450 nM

Kindly review the next molecule as well.
// query Value lookup for EC50; key = `c1[nH]nc2c1CCc1c-2[nH]c2cc3c(cc12)OCCO3`
// result 2640 nM

* * *

Entries and their measured EC50 follow.
- protocol description: Inhibition of RIP1/JNK2 (unknown origin)-mediated necrosis
Form entry: value (nM) — number only.

Completed entries (count: 3):
1. c1[nH]nc2c1CCc1c-2[nH]c2cc3c(cc12)OCO3: 150
2. N#Cc1ccc2c3c([nH]c2c1)-c1n[nH]cc1CC3: 110
3. c1ccc2c(c1)[nH]c1c2ccc2c[nH]nc21: 3620

// query Value lookup for EC50; key = `Fc1cccc2c3c([nH]c12)-c1n[nH]cc1CC3`
// result 860

// query Value lookup for EC50; key = `COc1cc2[nH]c3c(c2cc1OC)CCc1c[nH]nc1-3`
// result 47

// query Value lookup for EC50; key = `c1ccc2c3c([nH]c2c1)-c1n[nH]cc1C3`
// result 5790

* * *

- protocol description: Inhibition of RIP1/JNK2 (unknown origin)-mediated necrosis
Label true when EC50 < 0.7 µM; otherwise false.

1. FC(F)(F)c1ccc2c3c([nH]c2c1)-c1n[nH]cc1CC3: true

// query Does the reported EC50 of `COc1ccc2c3c([nH]c2c1)-c1n[nH]cc1CC3` stay below 0.7 µM?
// result true

// query Does the reported EC50 of `CCc1ccc2[nH]c3c(c2c1)CCc1c[nH]nc1-3` stay below 0.7 µM?
// result false

// query Does the reported EC50 of `Cc1cccc2c3c([nH]c12)-c1n[nH]cc1CC3` stay below 0.7 µM?
// result false

* * *

- protocol description: Inhibition of RIP1/JNK2 (unknown origin)-mediated necrosis
Entries and their measured EC50 follow.
Form entry: value (nM) — number only.

// query Value lookup for EC50; key = `Clc1ccc2c3c([nH]c2c1)-c1n[nH]cc1CC3`
// result 250

// query Value lookup for EC50; key = `COc1cc(OC)c2c3c([nH]c2c1)-c1n[nH]cc1CC3`
// result 110

// query Value lookup for EC50; key = `COc1ccc2[nH]c3c(c2c1)CCc1c[nH]nc1-3`
// result 170

// query Value lookup for EC50; key = `Clc1cccc2[nH]c3c(c12)CCc1c[nH]nc1-3`
// result 670

// query Value lookup for EC50; key = `O=[N+]([O-])c1cccc2c3c([nH]c12)-c1n[nH]cc1CC3`
// result 6320
